Source: patent US20240239775A1

Please go through the items and note down their melting point.

Give the reported value of melting point for this record: `Cc1c(C(=O)O)oc2ccc(S(=O)(=O)N(CCc3ccccc3)c3ccc(N4CCN(C(=O)CC(C)(C)C)CC4)cc3)cc12`
> 380 °C (dec.)

Give the reported value of melting point for this record: `Cc1c(C(=O)O)oc2ccc(S(=O)(=O)N(CCc3ccccc3)c3ccc(N4CCN(C(=O)OC(C)(C)C)CC4)nc3)cc12`
> 380 °C (dec.)

Give the reported value of melting point for this record: `CC(=O)N1CCN(c2ccccc2N(CCc2ccccc2)S(=O)(=O)c2ccc3oc(C(=O)O)c(C)c3c2)CC1`
196 to 197 °C

Give the reported value of melting point for this record: `Cc1c(C(=O)O)oc2ccc(S(=O)(=O)N(CCc3ccccc3)Cc3ccc(C(C)(C)C)cc3)cc12`
206 to 207 °C

Give the reported value of melting point for this record: `Cc1c(C(=O)O)oc2ccc(S(=O)(=O)N(CCc3ccccc3)Cc3ccc(Cl)cc3)cc12`
172 to 173 °C

Give the reported value of melting point for this record: `Cc1c(C(=O)O)oc2ccc(S(=O)(=O)N(CCc3ccccc3)Cc3ccc(C(F)(F)F)cc3F)cc12`
174 to 175 °C

Give the reported value of melting point for this record: `Cc1c(C(=O)O)oc2ccc(S(=O)(=O)N(CCc3ccccc3)c3ccccc3N3CCN(C(=O)CC(C)(C)C)CC3)cc12`
191 to 192 °C
